src = patent US20180057581A1

target: native human M-CSF (in human serum or in MDA-MB-231 conditioned medium) (human), P09603; assay: cell-based or functional assay
Sequence (P09603 33-255): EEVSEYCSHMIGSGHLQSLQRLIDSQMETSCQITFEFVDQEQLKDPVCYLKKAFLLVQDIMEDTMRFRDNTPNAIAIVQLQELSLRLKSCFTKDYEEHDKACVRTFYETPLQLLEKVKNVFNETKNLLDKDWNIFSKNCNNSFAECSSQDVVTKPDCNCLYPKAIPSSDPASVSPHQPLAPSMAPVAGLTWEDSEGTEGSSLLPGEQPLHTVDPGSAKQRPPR
Quantity measured: IC50, inhibition of M-NFS-60 proliferation induced by MDA-MB-231 conditioned medium

{"columns": ["Binder", "Assay value"],
 "data": [
  ["Laurine, IgG1_D265A (antibody, V domains shown) VH: QVQLQQSGPGLVKPSQTLSLTCAISGDSVSSNSAAWNWIRQSPSRGLEWLGRTYYRSKWKKEYAQSVKSRITINPDTSKNQFSLQLNSVTPEDTAVYYCARDRYYYSAFDYWGQGTLVTVSS VL: DIALTQPASVSGSPGQSITISCTGTSSDVGGYNSVSWYQQHPGKAPKLMIYAVSNRPSGVSNRFSGSKSGNTASLTISGLQAEDEADYYCASYDERFTRVFGGGTKLTVLGQ", "0.095 nM"],
  ["Servane, IgG1_D265A (antibody, V domains shown) VH: EVQLVESGGGLVKPGGSLRLSCAASGFTFSTYAISWVRQAPGKGLEWVGFIKSKHNSGTTEYAAPVKGRFTISRDDSKNTLYLQMNSLKTEDTAVYYCARMRYYSDLYFDPWGQGTLVTVSS VL: SYELTQPPSVSVSPGQTASITCSGDKLGQKYVSWYQQKPGQSPVLVISQDRKRPSGIPERFSGSNSGNTATLTISGTQAEDEADYYCQTWTHLQWVFGGGTKLTVLGQ", "0.107 nM"],
  ["HeRX1-10G1, IgG1_D265A (antibody, V domains shown) VH: QVQLQESGPGLVKPSQTLSLTCTVSDYSITSDYAWNWIRQFPGKGLEWMGYISYSGSTSYNPSLKSRITISRDTSKNQFSLQLNSVTAADTAVYYCASFDYAHAMDYWGQGTTVTVSS VL: DIVLTQSPAFLSVTPGEKVTFTCQASQSIGTSIHWYQQKTDQAPKLLIKYASESISGIPSRFSGSGSGTDFTLTISSVEAEDAADYYCQQINSWPTTFGGGTKLEIKRT", "0.0591 nM"]
]}
